- target_or_test_system: hMAT2A (Homo sapiens)
- Sequence (P31153 whole entry): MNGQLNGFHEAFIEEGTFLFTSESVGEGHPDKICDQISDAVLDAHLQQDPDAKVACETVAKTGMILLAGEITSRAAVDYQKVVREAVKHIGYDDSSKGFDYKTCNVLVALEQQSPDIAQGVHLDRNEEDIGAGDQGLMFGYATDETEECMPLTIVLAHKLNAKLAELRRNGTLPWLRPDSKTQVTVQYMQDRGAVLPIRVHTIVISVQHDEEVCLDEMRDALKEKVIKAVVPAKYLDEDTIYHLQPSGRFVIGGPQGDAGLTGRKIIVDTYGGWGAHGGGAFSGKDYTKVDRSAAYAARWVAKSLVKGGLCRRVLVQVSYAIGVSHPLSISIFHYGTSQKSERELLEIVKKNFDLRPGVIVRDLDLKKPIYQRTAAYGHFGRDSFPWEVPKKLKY
- assay_name: Malachite Green Assay (MAT2A enzyme inhibition)
- Assay type: biochemical
- Parameters: amino acids 1-395; purchased Cepter
- conditions: hMAT2A 50 nM, substrates 500 uM each, reaction time 1 hour, 23° C.
pIC50: −log10 of the molar value.
observation_type: pIC50

* Nc1nc(=O)n(-c2ccccc2)c2cc(Cl)ccc12 | 5.00 to 6.00
